assay: stability (content) of ingredients included in the Salvia miltiorrhiza extract on storage
Format: physicochemical
measurement context: extract made with 70% EtOH, 5 days at room temperature
// values below are reported Content (mg/g) of ingredient after 5 days of storage at room temperature of extract
The figure you give is taken to be in mg/g; do not add the unit.

Look over these answered cases.
Cc1coc2c1C(=O)c1ccc3c(C)cccc3c1C2=O [Isotanshinone]
12.11
O=C(/C=C/c1ccc(O)c2c1[C@H](C(=O)O[C@H](Cc1ccc(O)c(O)c1)C(=O)O)[C@@H](c1ccc(O)c(O)c1)O2)O[C@H](Cc1ccc(O)c(O)c1)C(=O)O [Salvianolic acid B]
23.21
Cc1coc2c1C(=O)C(=O)c1c-2ccc2c1CCCC2(C)C [Tanshinone IIA]
4.33

Below: the item to evaluate.
Content (mg/g) of ingredient after 5 days of storage at room temperature of extract for O=C(O)[C@H](O)Cc1ccc(O)c(O)c1 [Danshensu] ?
24.19
